- measurement.target: T1, CSTF2 RRM D90K (Homo sapiens, UniProt P33240 1-107, D90K)
- T1 sequence: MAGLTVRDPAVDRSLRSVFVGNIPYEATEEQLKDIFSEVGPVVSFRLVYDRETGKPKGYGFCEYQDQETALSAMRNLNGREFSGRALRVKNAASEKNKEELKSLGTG
- assay.remarks: ITC
parameter.measured: pKd
// returns pKd (minus log10 of molar concentration), number only

Prompt: Which pKd value is on record for AUUUUAUGUUUCAGGU (ssRNA) [SVL RNA] ?
Response: 6.22
